Entry source: ChEMBL document CHEMBL1133111

- study_system: Receptor-type tyrosine-protein phosphatase F (Rattus norvegicus)
- assay_comment: Inhibitory activity against rat recombinant leukocyte-common antigen-related molecule (LAR)
readout_type: Kis

> print(dat)
                               query.smiles                              study.system  test.result
1  O=C(CSc1nnc(Nc2ccc(F)cc2)s1)c1ccc(Cl)cc1  Receptor-type tyrosine-protein phosphatase F (Rattus norvegicus)        53 µM
2  O=C(/C=C/c1cccc([N+](=O)[O-])c1)c1c(O)nc2cc([N+](=O)[O-])ccc2c1-c1ccccc1  Receptor-type tyrosine-protein phosphatase F (Rattus norvegicus)     > 100 µM
3          O=S(=O)(O)c1ccc2c3c(ccc2c1)CCCC3  Receptor-type tyrosine-protein phosphatase F (Rattus norvegicus)    > 1000 µM
4  O=S(=O)(O)Oc1c2ccccc2c2ccc3c(OS(=O)(=O)O)c4ccccc4c4ccc1c2c34  Receptor-type tyrosine-protein phosphatase F (Rattus norvegicus)     > 100 µM
5  O=C(O)c1ccc(Oc2ccc(C(=O)c3ccc4c(c3)C(=O)OC4=O)cc2)cc1  Receptor-type tyrosine-protein phosphatase F (Rattus norvegicus)    > 1000 µM

In the following, a different molecule is considered.
Please report Kis for the following molecule: "O=C(O)c1cc(NCn2c(S)nc3ccccc32)ccc1O"
> 100 µM

====

- study_system: UniProt P18031
- Sequence (whole entry): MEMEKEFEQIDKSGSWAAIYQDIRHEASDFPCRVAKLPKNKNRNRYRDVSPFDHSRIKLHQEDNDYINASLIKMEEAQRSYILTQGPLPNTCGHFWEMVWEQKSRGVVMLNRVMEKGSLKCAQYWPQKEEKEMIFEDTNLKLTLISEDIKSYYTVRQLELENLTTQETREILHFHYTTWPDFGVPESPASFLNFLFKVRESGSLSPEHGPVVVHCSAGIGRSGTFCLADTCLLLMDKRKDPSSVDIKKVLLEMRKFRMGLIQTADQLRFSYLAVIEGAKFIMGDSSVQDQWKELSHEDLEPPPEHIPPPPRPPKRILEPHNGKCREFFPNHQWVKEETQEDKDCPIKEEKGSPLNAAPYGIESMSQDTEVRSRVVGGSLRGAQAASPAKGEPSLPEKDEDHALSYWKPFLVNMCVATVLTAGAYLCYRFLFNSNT
- assay_comment: Inhibitory activity against protein tyrosine phosphatases (PTP1B) (Kis=slope inhibitory constant)
Some molecules, each annotated with its measured log10(Kis).
Values are log10 of Kis in µM.

> print(dat)
                               query.smiles  test.result
1  Cc1ccc2c(c1)nc(S)n2CNc1ccc(C(=O)O)c(O)c1         2.88

Supply reported log10(Kis) belonging to this molecule: "O=C(CSc1nnc(Nc2ccc(F)cc2)s1)c1ccc(Cl)cc1"
2.04

Check the records and state log10(Kis) for "O=S(=O)(O)c1ccc2c3c(ccc2c1)CCCC3"
2.38

Read off the recorded log10(Kis) for "O=C(O)c1cc(NCn2c(S)nc3ccccc32)ccc1O"
1.79

Please report log10(Kis) for the following molecule: "C[C@]12CC[C@@H]3c4ccc(OS(=O)(=O)O)cc4CC[C@H]3[C@@H]1CCC2=O"
3.32

# return recorded log10(Kis) for entry "O=C(/C=C/c1cccc([N+](=O)[O-])c1)c1c(O)nc2cc([N+](=O)[O-])ccc2c1-c1ccccc1"
1.73

Quick one: give measured log10(Kis) for "O=[N+]([O-])c1ccc(OS(=O)(=O)O)cc1"
4.00

Look up log10(Kis) of "O=C(O)c1ccc(Oc2ccc(C(=O)c3ccc4c(c3)C(=O)OC4=O)cc2)cc1" and report it.
2.71

Tell me log10(Kis) reported for "O=S(=O)(O)Oc1c2ccccc2c2ccc3c(OS(=O)(=O)O)c4ccccc4c4ccc1c2c34"
1.59

Query log10(Kis) for "O=C(O)c1ccccc1O"
4.29

Consider the molecule "O=C1c2ccccc2-c2cc([N+](=O)[O-])cc3cccc1c23" . State its measured log10(Kis).
1.32
